assay: Determination of pharmacokinetic parameters following intravenous and oral administration (rats); type: in vivo, male Wistar rats; conditions: intravenous administration in rats
parameter-measured: AUCnorm (kg·h/L)

{"compound": "Cc1cc(OCc2c(F)cccc2F)c2nc(C)c(C(=O)NCC(N)C(C)C)n2c1 (single isomer, unassigned) [Example 223]", "value": 0.87}
{"compound": "CCC(C)(N)CNC(=O)c1c(C)nc2c(OCc3c(F)cccc3F)cc(OC)cn12 (single isomer, unassigned; enantiomer a) [Example 279]", "value": 0.42}
{"compound": "Cc1nc2c(OCc3c(F)cccc3F)cc(Cl)cn2c1C(=O)NCC(C)(C)N [Example 73]", "value": 1.55}
{"compound": "Cc1nc2c(OCc3c(F)cccc3F)cc(Cl)cn2c1C(=O)NCC(N)C(C)C (single isomer, unassigned) [Example 211]", "value": 0.78}
{"compound": "CCC(C)(N)CNC(=O)c1c(C)nc2c(OCc3c(F)ccc(F)c3F)cc(C)cn12 (single isomer, unassigned; enantiomer b) [Example 275]", "value": 0.64}

###

Molecular target: recombinant guanylate cyclase reporter cell line (Rattus norvegicus, UniProt P19686+P20595)
Construct: expressed in transfected cells; host or cells: recombinant reporter cell line
Sequence (P19686 1-690): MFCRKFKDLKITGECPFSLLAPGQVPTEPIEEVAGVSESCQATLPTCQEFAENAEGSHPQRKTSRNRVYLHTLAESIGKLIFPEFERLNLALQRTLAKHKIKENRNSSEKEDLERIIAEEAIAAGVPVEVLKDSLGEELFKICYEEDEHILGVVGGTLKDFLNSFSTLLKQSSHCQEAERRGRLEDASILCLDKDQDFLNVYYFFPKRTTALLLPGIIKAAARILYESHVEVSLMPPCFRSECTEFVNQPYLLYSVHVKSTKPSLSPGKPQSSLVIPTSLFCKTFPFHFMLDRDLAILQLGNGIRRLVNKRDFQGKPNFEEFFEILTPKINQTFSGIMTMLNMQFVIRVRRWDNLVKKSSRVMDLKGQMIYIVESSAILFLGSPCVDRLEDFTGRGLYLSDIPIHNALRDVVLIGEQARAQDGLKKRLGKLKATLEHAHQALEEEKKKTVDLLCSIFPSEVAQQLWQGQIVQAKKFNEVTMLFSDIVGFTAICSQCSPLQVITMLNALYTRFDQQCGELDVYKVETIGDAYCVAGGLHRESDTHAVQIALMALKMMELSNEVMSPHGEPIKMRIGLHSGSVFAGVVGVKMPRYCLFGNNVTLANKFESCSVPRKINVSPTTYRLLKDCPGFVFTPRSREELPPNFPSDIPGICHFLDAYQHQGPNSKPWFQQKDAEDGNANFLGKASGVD
Sequence (P20595 1-619): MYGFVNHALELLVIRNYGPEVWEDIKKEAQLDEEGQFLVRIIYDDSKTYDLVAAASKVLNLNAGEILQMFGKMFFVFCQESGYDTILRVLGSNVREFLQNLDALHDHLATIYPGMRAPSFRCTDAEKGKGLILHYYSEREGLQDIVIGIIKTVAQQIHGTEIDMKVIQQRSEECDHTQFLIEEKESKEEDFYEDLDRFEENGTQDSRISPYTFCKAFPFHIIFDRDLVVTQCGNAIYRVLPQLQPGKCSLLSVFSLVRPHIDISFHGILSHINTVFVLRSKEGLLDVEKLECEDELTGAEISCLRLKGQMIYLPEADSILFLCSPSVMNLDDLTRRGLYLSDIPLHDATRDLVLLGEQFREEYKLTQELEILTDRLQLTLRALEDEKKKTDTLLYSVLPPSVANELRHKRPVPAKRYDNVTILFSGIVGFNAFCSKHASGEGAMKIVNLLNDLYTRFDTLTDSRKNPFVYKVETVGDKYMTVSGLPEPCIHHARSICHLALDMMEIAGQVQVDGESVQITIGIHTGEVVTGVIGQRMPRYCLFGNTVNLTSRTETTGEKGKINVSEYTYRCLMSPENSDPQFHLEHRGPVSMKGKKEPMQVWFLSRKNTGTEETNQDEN
Assay: Action on recombinant guanylate cyclase reporter cell line
Format: cell-based
Settings: in some cases mean values from individual determinations
parameter-measured: MEC (minimal effective concentration) (µM)

{"compound": "Cc1nc2c(OCc3c(F)cccc3F)cccn2c1C(=O)NCC(C)(N)CC(C)C (racemic) [Example 202]", "parameter-measured": "MEC (minimal effective concentration)", "value": 0.10}
{"compound": "Cc1nc2c(OCc3c(F)cccc3F)cccn2c1C(=O)NCC1(N)CC1 [Example 38]", "parameter-measured": "MEC (minimal effective concentration)", "value": 0.40}
{"compound": "Cc1cc(OCc2c(F)cccc2F)c2nc(C)c(C(=O)NCC3CS(=O)(=O)CCN3)n2c1 (racemic) [Example 414]", "parameter-measured": "MEC (minimal effective concentration)", "value": 0.30}
{"compound": "Cc1cc(OCc2c(F)cccc2F)c2nc(C)c(C(=O)NC3CNc4ccccc4C3)n2c1 (racemic) [Example 76]", "parameter-measured": "MEC (minimal effective concentration)", "value": 0.30}
